target: COMP (Homo sapiens); assay: ELISA-style binding assay, COMP on coated collagen model peptides / collagen; settings: peptide or collagen coated at 10 µg/ml (500 ng per well) on ELISA plate, pentameric COMP at indicated concentrations, 1 h, room temperature, TBS-T with 0.25% BSA, anti-COMP antibody; four-parameter logistic fit; triplicates; read-out: Apparent KD
Sequence (P49747 21-757): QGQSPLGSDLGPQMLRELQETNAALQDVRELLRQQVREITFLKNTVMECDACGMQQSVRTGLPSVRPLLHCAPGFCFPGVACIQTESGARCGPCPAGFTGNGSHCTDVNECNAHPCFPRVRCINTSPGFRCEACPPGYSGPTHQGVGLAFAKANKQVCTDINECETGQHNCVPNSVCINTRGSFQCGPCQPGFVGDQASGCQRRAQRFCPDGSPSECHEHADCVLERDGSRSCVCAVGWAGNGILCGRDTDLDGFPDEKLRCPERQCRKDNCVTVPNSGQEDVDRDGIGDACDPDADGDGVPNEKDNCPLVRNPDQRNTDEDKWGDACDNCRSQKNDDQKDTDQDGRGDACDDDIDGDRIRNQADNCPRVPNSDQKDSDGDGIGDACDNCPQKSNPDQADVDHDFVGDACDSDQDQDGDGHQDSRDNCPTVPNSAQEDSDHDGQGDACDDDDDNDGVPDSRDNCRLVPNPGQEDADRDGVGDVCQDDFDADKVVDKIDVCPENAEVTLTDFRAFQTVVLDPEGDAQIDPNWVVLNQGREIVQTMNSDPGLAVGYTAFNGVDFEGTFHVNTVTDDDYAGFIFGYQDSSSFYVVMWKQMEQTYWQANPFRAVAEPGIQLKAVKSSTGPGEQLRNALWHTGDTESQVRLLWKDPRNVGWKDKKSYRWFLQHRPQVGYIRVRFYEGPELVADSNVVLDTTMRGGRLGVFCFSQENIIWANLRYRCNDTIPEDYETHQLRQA
Reported property: Kd (nM)

GEAGEPGERGLKGHRGFTGLQGLPGPP [peptide 52, library peptide with the C-terminal GLKGHR motif of collagen II, foldon context] | 4.1
GVKGHR | 1.61

1. GARGFPGTPGLPGVKGHRGYPGLDGAK [peptide 5, E. coli expressed collagen II library peptide in NStrep-(GPP)6-GUEST-(GPP)6-foldon context]
2. GLPGPKGHR
query: Form: Entry with minimum Kd (choose one): 1 / 2 When you have decided, please share the label of that item.
result: 2
(2: 2.26 nM, 1: 19.3 nM)
